target: cellular IDO1 in HeLa cells (Homo sapiens (Human)); assay: HeLa Cell-Based IDO1 Kyn (Kynurenine) Production Assay; conditions: IFN-γ induced IDO1, 48 hours incubation, Kyn absorbance at 480 nm
Sequence (P14902 whole entry): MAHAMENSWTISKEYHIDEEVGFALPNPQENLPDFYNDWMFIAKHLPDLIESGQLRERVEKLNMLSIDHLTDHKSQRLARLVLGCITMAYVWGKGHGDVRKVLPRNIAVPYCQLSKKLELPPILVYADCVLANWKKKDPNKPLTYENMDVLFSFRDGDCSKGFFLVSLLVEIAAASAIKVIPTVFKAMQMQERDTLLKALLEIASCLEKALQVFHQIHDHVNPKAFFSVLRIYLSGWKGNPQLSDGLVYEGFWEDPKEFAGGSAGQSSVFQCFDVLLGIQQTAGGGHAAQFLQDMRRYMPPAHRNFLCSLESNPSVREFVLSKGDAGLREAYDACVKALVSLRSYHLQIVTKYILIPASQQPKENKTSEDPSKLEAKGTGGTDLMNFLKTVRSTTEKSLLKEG
Label YES when EC50 < 10 nM; otherwise NO.

# count of solved cases: 5
COMPOUND | CLASS LABEL
Fc1ccc2nccc(C3CCC(Cc4nc5cc(Cl)ccc5[nH]4)CC3)c2c1 (centres unmarked) [Example A1a] | NO
C[C@@H](c1nc2cc3ccccc3cc2[nH]1)[C@H]1CC[C@@H](c2ccnc3ccc(F)cc32)CC1 [Example B173] | NO
C[C@H](c1nc2ccc(Cl)cc2[nH]1)C1CCC(c2cnc3ccccc3c2)CC1 (some centres unmarked) [Example B25a] | YES
C[C@@H](c1nc2ccc(C3=NCCO3)cc2[nH]1)[C@H]1CC[C@@H](c2ccnc3ccc(F)cc32)CC1 [Example B197] | YES
C[C@@H](c1nc2ccc(Cl)cc2[nH]1)C1CCC(c2cnc3ccccc3c2)CC1 (some centres unmarked) [Example B25b] | YES

Please determine if CC(C)OC(=O)c1ccc2nc(C(C)[C@H]3CC[C@@H](c4ccnc5ccc(F)cc54)CC3)[nH]c2c1 (some centres unmarked) [B168] is below 10 nM in terms of EC50.
YES

Please determine if COC1CCC(NC(=O)c2ccc3[nH]c(C(C)[C@H]4CC[C@@H](c5ccnc6ccc(F)cc65)CC4)nc3c2)CC1 (some centres unmarked) [Example B185] is below 10 nM in terms of EC50.
NO

Please determine if CC(c1nc2c(ccc3ncccc32)[nH]1)[C@H]1CC[C@@H](c2ccnc3ccc(F)cc32)CC1 (some centres unmarked) [B150] is below 10 nM in terms of EC50.
NO
